- ASSAYED_SYSTEM: Transient receptor potential cation channel subfamily A member 1 (Homo sapiens)
- Sequence (O75762 whole entry): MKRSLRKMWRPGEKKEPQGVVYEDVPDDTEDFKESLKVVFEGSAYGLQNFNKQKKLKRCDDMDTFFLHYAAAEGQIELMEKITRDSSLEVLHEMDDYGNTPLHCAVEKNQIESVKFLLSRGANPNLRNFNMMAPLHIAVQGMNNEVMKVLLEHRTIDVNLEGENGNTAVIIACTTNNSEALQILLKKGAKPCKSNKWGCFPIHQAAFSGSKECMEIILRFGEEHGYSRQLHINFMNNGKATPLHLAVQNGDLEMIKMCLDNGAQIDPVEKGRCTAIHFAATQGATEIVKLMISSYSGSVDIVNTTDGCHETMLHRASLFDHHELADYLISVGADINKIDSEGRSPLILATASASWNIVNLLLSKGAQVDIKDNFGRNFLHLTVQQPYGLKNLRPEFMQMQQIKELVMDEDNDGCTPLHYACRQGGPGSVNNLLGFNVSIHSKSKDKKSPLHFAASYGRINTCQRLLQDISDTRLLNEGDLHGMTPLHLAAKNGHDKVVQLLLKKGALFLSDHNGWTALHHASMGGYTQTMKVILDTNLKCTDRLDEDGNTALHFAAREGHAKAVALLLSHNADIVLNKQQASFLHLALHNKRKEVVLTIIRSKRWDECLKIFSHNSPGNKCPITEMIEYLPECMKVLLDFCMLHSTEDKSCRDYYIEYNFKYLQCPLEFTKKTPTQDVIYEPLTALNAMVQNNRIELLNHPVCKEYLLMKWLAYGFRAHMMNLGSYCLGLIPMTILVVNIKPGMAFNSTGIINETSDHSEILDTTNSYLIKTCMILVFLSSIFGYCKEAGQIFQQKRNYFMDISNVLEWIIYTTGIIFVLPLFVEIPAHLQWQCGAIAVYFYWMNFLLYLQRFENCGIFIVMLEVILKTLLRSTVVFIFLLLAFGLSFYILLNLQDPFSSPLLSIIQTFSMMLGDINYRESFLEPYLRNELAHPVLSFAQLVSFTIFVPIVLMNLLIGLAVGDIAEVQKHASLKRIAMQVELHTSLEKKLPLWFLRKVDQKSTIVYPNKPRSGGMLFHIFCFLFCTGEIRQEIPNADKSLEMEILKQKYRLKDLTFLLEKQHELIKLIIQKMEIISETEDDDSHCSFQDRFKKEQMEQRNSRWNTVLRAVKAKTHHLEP
- ASSAY: Antagonist activity at human TRPA1 channel expressed in HEK293 cells assessed as inhibition of allyl isothiocyanate-induced intracellular calcium influx by FLIPR
- Type: functional, cell-based
READOUT_LABEL: IC50 (µM)

1) CC(C)c1ccc(NC(=O)Cn2cnc3c2c(=O)n(C)c(=O)n3C)cc1; 7.5

###

- ASSAYED_SYSTEM: Transient receptor potential cation channel subfamily V member 1 (Homo sapiens)
- Sequence (Q8NER1 whole entry): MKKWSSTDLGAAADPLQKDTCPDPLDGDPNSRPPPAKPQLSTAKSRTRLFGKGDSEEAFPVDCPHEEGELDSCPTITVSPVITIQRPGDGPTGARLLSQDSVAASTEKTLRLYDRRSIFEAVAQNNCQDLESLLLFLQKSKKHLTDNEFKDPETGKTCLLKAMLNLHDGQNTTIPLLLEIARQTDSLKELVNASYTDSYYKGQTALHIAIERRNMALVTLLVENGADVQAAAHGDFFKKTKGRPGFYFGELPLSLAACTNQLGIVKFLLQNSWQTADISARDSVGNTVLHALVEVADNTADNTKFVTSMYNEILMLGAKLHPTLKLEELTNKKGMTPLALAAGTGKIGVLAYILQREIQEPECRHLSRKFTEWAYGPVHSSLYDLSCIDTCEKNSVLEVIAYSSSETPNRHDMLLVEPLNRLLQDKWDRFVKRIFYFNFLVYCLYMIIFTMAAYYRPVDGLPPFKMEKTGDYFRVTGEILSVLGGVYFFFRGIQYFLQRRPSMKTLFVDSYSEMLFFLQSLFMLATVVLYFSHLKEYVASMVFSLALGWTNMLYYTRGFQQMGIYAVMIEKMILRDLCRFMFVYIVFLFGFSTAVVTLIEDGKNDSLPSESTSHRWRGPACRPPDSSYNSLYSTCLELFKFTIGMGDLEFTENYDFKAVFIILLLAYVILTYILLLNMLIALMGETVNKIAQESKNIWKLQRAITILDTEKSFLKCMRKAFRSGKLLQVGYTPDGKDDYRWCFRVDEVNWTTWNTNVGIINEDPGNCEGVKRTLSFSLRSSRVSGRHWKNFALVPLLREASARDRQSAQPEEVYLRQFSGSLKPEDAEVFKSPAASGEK
- ASSAY: Activation of TRPV1 channel
pEC50: −log10 of the molar value.
READOUT_LABEL: pEC50

1) C/C=C/C=C/C=C\CC/C=C/C(=O)NCC(C)(C)O; 5.96

Origin of the recorded values: ChEMBL document CHEMBL1155439
